// data source = the nanobody polyreactivity screen of Harvey et al. (2022)

test: yeast display, Sf9 membrane polyspecificity reagent, FACS + sequencing; frameworks hold sequencing errors
measured.parameter: polyreactivity (PSR sort gate)

Known results for sequences:
INSERT INTO assay_data (ordered_residues, measured_parameter, result) VALUES
  ('QVQLVESGGGLVQAGGSLRLSCADSGSTLYRYAMGWYRQAPGKERELVDAISSAGSTHYADSVKGRFTISRDNAKNTVYLQMNSLKPEDTAVYYCNAVRKTFDYNYWGQGTQVTVSS', 'polyreactivity (PSR sort gate)', 'high polyreactivity'),
  ('QVQLVESGGGLVQAGGSLRLSCAASGRIFHGYAMGWYRQAPGKERELVAAISSGGRTNYADSVKGRFTISRDNAKNTVYLQMNSLKPEDTAVYYCAAETQWYVRSRTLFYRYDYWGQGTQVTVSS', 'polyreactivity (PSR sort gate)', 'high polyreactivity'),
  ('QVQLQESGGVLVQAGGSLRQSYAASGYIFPSLAMGWYRQAPGKEREFVAAIGRGSTNNYADSVKGRFTISRDNAKNTAYQQMNSLKPEDTAVYYCAAAASPLTRHLYWGQGTQVTVSS', 'polyreactivity (PSR sort gate)', 'low polyreactivity'),
  ('QVQLVESGGGLVQAGGSLRLSCASSGFIFKRYAMGWYRQAPGKERELVAAITSGGSTHYADSVKGRFTISRDNAKNTVYLQMNSLKPEDTAVYYCATRRYKWGVRYDYWGQGTQVTVSS', 'polyreactivity (PSR sort gate)', 'high polyreactivity'),
  ('QVQLVESGGGLVQAGGSLRLSCAASGFTFGYYTMGWYRQAPGKERELVAAISWSGDSTYYADSVKGRFTISRDNAKNNVYLQMNSLKPEDTAVYYCAAAVYGSWPDYDYWGQGTQVTVSS', 'polyreactivity (PSR sort gate)', 'low polyreactivity'),
  ('QVQLVESGGGLVQAGGSLRLSCAASGRTFPGYAMGCYRQAPGKERELVATITFSDGSTYYADSVKGRFTISRDNAKITVYLQMNSLKPEDTAVYYCNARRSYFLRYGVNYWGQGTQVTVST', 'polyreactivity (PSR sort gate)', 'low polyreactivity'),
  ('QVQLVESGGGLVQAGGSLSLSCAASGFIFHFNAMGWYIQAPGKEREVVAAISRTGGTTYYADSVKGRFTLSRDNAKNTVYLQMNSLKPEVTAVYYCAAYSTYGQHYDYWGQGTQVTVSS', 'polyreactivity (PSR sort gate)', 'high polyreactivity'),
  ('QVHLVESRGGLVQAGGSLRLSCAASGYTFGHYALGWYRHAPGKERELVAVITSGGSTNYADSEKGRFTISRDNAKNNVYLQMKSLKPEETAVYYCAADLYFYYVWLRDYWGQGTQVTVSS', 'polyreactivity (PSR sort gate)', 'low polyreactivity'),
  ('QVQLVETGGGLVQAGVSLRLSCAASGRIFEVNVMGWYRQAPGKERELVAAITTGGGSTYYADSVKGRFTISRDNAKNTVYLQMNSLKPEDTAVYYCATDYSSYLYDYYTGVGGYDYWGQGTQVTVSS', 'polyreactivity (PSR sort gate)', 'low polyreactivity'),
  ('QVQLVDSGGGLVQAGGTHRLSCAASGFTFRRNAMGWYRQAPGKERELVAAITYNGGTSYYADSVKGRFSISRDNAKNTVYLQMNSLKPEETAVYYCAAVDSYSPYVSHDNWGQGTKVTVSS', 'polyreactivity (PSR sort gate)', 'low polyreactivity');

Asked: Would you mind telling me what polyreactivity (PSR sort gate) value was observed for QVQLVESGGGLVQAGGSLRLSCAASGQIFYTNTMGWYRQAPGKERELVAAINSGDRTYYADSVKGRFTISRDNAKNTVYLQMNSLKPEDTAVYYCAARNYATAVRYDYWGQGTQVTVSS ?
Given back: high polyreactivity

Asked: Would you mind telling me what polyreactivity (PSR sort gate) value was observed for QVQLVESGGGLVQAGGSLRLSCAASGRTFVTYAMGWYRQAPGKERELVAAISKRGSRTYYADSVKGRFTISRDNAKNTVYLQMNSLKPEDTAVYYCNAYPYRTSYDYWGQGTQVTVSS ?
Given back: high polyreactivity

Asked: Would you mind telling me what polyreactivity (PSR sort gate) value was observed for QVQLVESGGGLVQAGGSLRLSCAASGYIFLPYAMGWYRQAPGKERELVAAITSVGRTYYADSVKGRFTISRDNAKNTVYLQMNSLKPEDTAVYYCAAPRGHGKYYSWGQGTQVTVSS ?
Given back: high polyreactivity

Asked: Would you mind telling me what polyreactivity (PSR sort gate) value was observed for QVQHVESAGGLVQAAGSLRLSCAASGLSYSRYAMGWYRQAPGKERELVAAITWSGSSTYYADSVKGRFTISRDNAKNTVYLQMNSLKPEDTAVYYCAGRYGYSRGPYYRSDYWGQGTQVTVSS ?
Given back: high polyreactivity

Asked: Would you mind telling me what polyreactivity (PSR sort gate) value was observed for QVQLVESGGGLVQAGGSLRLSCAASGFTFYTYAMGWYRQAPGKERELVAAINQRGGRTYYADSVKGRFTISRDNAKNTVYLQMNSLKPEDTAVYYCAKSPPPKTRYDYWGQGTQVTVSS ?
Given back: high polyreactivity

Asked: Would you mind telling me what polyreactivity (PSR sort gate) value was observed for QVQLVETGGGLVQAGGSLRLSCAASGFTILGYDMGWYRQAHGKERELVAAFDYSGGSTYYADSVKGRFTISRDNAQNTVYLQMNSLKPEDTAVYYCAAYTGKGRAYFRWMDYWGQGTQVTVSS ?
Given back: high polyreactivity

Asked: Would you mind telling me what polyreactivity (PSR sort gate) value was observed for QVQLQESDGGLVQAGGSLRLSCAASGSISPQYYMGWYRQAPGKEREYVAISKGTTTYSADSVKGRLTISRVNAKNTVYLQMNSLKPEDTAVYCCAAGRWLQKVHAYWDQGTQVTVSS ?
Given back: low polyreactivity

Asked: Would you mind telling me what polyreactivity (PSR sort gate) value was observed for QVQLVESGGGLVQAGGSLRLSCAASGRIFSYYAMGWYRQAPGKERELVAAISWSGGRTYYADSVKGRFTISRDNAKNTVYLQMNSLKPEDTAVYYCAARLKLYLPRSAYDYWGQGTQVTVSS ?
Given back: high polyreactivity

Asked: Would you mind telling me what polyreactivity (PSR sort gate) value was observed for QVQLVESGGGLVQAGGSLRLSCAASGSIFSKYAMGWYRQAPGKERELVAAITFRSGSTYYADSVKGRFTISRDNAKNTVYLQMNSLKPEDTAVYYCAADEYYQVSAYDYWGQGTQVTVSS ?
Given back: low polyreactivity

Asked: Would you mind telling me what polyreactivity (PSR sort gate) value was observed for QVQLVESGGRLVQAGGSLRLSCAASGRTFDYYDMGWYRQAPGKERELVAAITWGGGSTYYADSVKGRFSISRDNAKNTVYLQMNSLKPEDTAVYYCNADHFGWPWRVRIHEDDYWGQGTQVTVSS ?
Given back: low polyreactivity

Asked: Would you mind telling me what polyreactivity (PSR sort gate) value was observed for QVQLVESGGGLVQAGGSHRLSCAASGSTFSWNTMGWYRQAPGKERELVASITRSDGSTYADSEKGRFTISRDNAKNTVYLQMNSLKPEDTAVYYCNADPYLYLYLNYDYWGQGTQVTVSS ?
Given back: low polyreactivity
